Biological target: Adrenergic receptor alpha-1 (Rattus norvegicus, UniProt P15823+P23944+P43140)
Sequence (P15823 whole entry): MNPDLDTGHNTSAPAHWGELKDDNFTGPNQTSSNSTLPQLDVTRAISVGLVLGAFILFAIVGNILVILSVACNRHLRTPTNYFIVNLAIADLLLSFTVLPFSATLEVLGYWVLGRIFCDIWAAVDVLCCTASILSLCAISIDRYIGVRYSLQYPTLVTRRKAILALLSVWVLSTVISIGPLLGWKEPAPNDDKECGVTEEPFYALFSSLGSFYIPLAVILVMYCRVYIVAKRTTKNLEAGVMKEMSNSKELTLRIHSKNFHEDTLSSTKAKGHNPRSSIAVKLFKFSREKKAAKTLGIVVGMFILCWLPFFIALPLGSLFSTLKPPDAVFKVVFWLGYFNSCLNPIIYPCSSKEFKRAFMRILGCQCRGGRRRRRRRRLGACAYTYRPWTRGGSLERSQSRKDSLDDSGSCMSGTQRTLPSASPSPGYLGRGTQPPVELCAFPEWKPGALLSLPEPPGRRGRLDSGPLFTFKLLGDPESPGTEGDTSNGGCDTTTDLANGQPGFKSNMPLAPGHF
Sequence (P23944 whole entry): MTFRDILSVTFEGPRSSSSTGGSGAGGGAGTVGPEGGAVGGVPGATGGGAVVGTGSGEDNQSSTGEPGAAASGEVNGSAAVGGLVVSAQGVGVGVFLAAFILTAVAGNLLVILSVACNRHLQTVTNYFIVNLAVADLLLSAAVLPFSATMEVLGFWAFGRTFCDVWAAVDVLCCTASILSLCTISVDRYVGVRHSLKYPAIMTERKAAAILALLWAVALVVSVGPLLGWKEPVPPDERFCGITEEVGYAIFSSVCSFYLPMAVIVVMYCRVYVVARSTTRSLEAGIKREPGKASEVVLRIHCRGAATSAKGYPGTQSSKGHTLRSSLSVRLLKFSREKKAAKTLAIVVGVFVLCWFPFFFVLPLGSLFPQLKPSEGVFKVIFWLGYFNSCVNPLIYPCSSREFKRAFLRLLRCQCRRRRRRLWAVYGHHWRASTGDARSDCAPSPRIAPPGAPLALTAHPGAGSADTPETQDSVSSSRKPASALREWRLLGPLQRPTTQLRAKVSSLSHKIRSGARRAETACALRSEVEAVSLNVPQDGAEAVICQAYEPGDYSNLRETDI
Sequence (P43140 whole entry): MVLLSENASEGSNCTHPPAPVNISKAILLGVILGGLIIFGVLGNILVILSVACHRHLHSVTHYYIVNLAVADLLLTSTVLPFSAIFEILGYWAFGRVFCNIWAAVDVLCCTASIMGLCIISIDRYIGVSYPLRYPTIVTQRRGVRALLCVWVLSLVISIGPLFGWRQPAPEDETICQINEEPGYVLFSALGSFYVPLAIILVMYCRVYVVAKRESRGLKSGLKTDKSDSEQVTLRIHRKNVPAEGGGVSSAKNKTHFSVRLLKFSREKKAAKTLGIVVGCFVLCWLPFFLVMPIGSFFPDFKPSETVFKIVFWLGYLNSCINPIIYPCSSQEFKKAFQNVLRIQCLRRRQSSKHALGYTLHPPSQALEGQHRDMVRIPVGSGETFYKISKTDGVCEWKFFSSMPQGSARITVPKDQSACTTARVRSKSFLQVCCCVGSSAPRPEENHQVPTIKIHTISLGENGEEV
Assay: Binding affinity towards Alpha-1 adrenergic receptor in rat cerebral cortex using [3H]prazosin
Type: tissue-based
quantity-measured: log10(Ki) (log10 of the value in nM)
# log10 transformed; quantity=Ki; unit=nM

Worked examples, 5 compounds total:
chem-smiles: CCOc1ccccc1OCCN1CCN(c2cnn(CCCCCCCN3CCN(c4ccccc4OC(C)C)CC3)c(=O)c2Cl)CC1
recorded-measurement: -0.59
//
chem-smiles: CCOc1ccccc1OCCN1CCN(c2cnn(CCCCCCCN3CCN(c4ccccc4OC)CC3)c(=O)c2Cl)CC1
recorded-measurement: -0.26
//
chem-smiles: CCOc1ccccc1N1CCN(CCCCCCCn2ncc(N3CCN(CCOc4ccccc4OC)CC3)c(Cl)c2=O)CC1
recorded-measurement: -0.24
//
chem-smiles: CC(C)Oc1ccccc1N1CCN(CCCCCCCn2ncc(N3CCN(C(=O)c4ccco4)CC3)c(Cl)c2=O)CC1
recorded-measurement: -1.28
//
chem-smiles: CCOc1ccccc1OCCN1CCN(c2cnn(CCCCCCCN3CCN(c4ccccc4OCC)CC3)c(=O)c2Cl)CC1
recorded-measurement: -0.37

Query compound follows.
Look at this compound and give its reported log10(Ki). `CCOc1ccccc1N1CCN(CCCCCCCn2ncc(N3CCN(C(=O)c4ccco4)CC3)c(Cl)c2=O)CC1`
-0.30
